Tested on: Huh-7 Lunet C3 cells
TEST_CONDITIONS: human, 24 h
Recorded highest non-toxic concentration values for a group of compounds are listed next.
Give the value, in units of nM, as a plain number.

The reported highest non-toxic concentration of the compound CC[C@]1(O)C[C@@H]2CN(CCc3c([nH]c4ccccc34)[C@@](C(=O)OC)(c3cc4c(cc3OC)N(C)[C@H]3[C@@](O)(C(N)=O)[C@H](O)[C@]5(CC)C=CCN6CC[C@]43[C@@H]65)C2)C1 was 0.02

Given item CC(=O)O[C@H]1C(=O)[C@@]2(C)[C@H]([C@H](OC(=O)c3ccccc3)[C@]3(O)C[C@H](OC(=O)[C@H](O)[C@@H](NC(=O)c4ccccc4)c4ccccc4)C(C)=C1C3(C)C)[C@]1(OC(C)=O)CO[C@@H]1C[C@@H]2O , the value recorded as its highest non-toxic concentration is 5

Kindly note the recorded highest non-toxic concentration for COC(=O)Nc1nc2ccc(Sc3ccccc3)cc2[nH]1 , which is 1

Per the record, COC(=O)Nc1nc2ccc(C(=O)c3ccccc3)cc2[nH]1 has highest non-toxic concentration of 5
